Source: patent US20180305414A1

Biological target: human IgG (available from the Chemo-Sero-Therapeutic Research Institute) (human)
Assay: binding capacity; binder immobilised on agarose gel, human IgG, acid elution, A280
reported_metric: IgG Binding Capacity (mg/mL gel)
Reply numerically in mg/mL gel, unit not repeated.

tetrameric multidomain polypeptide PL-424 (four linked modified domains of PL-024) (designed binder) AQHDEAGLALETPEEPREEVTIRVNLIFADGRTQTAEFRGTFEEATAEAYRYADLLARVNGEYTADLEDGGYTINIRFAGALETPEEPREEVTIRVNLIFADGRTQTAEFRGTFEEATAEAYRYADLLARVNGEYTADLEDGGYTINIRFAGALETPEEPREEVTIRVNLIFADGRTQTAEFRGTFEEATAEAYRYADLLARVNGEYTADLEDGGYTINIRFAGALETPEEPREEVTIRVNLIFADGRTQTAEFRGTFEEATAEAYRYADLLARVNGEYTADLEDGGYTINIRFAGALPSKSKKILKEAKKLNKAQAPKKKK ... 91.6
modified product PL-059 of immunoglobulin-binding domain 4 (designed binder) MAQHDEAGLALEKPEEPREEVTIKVNLIFADGKTQTAEFRGTFEEATAEAYRYADLLAKVNGEYTADLEDGGYTINIKFAGALPSKSKKILKEAKKLNKAQAPKKKK ... 56.1

// moving on: another record for IgG Binding Capacity
IgG Binding Capacity for modified product PL-049 of immunoglobulin-binding domain 4 (designed binder) MAQHDEAGLALEKPEEPREEVTIRVNLIFADGRTQTAEFRGTFEEATAEAYRYADLLAKVNGEYTADLEDGGYTINIKFAGALPSKSKKILKEAKKLNKAQAPKKKK ?
59.7
